- System: SK-MEL-2
- Assay Name: NCI tumour cell line growth inhibition, 48 h
Calls of active or inactive are those of the source. Cut-off read from the data, not from the text of the source: active = GI50 up to about 1.1 µM and inactive = higher.
Measure Name: GI50

Compound	Result Value
CC1CCCOc2ccc(cc2)/C=N\c2ccc(cc2)CCc2ccc(cc2)/N=C\c2ccc(cc2)OCCC1	> 100 µM (inactive)
CC1(C)OC(=O)C(C)(C)C(=O)O1	> 100 µM (inactive)
O=C(/C=C/c1ccc(O)c(O)c1)OCCc1cccc2ccccc12	3.44 µM (inactive)
COc1ccccc1NC(=S)Nc1cc(C)cc(C)n1	> 100 µM (inactive)
Nc1ncnc2c1sc(=S)n2-c1ccccc1	> 100 µM (inactive)
Cc1cc(C)c(C2=NO[C@@H]3C(=O)N(c4ccc(Cc5ccc(N6C(=O)[C@H]7C(c8c(C)cc(C)cc8C)=NO[C@H]7C6=O)cc5)cc4)C(=O)[C@H]23)c(C)c1	> 100 µM (inactive)
CC[C@]12C=CCN3CC[C@@]4(c5cc(Br)c(OC)cc5N(C)[C@H]4[C@@](O)(C(=O)NC(Cc4c[nH]c5ccccc45)C(=O)OC)[C@@H]1O)[C@@H]32 (some centres undefined)	25.2 µM (inactive)
CC1(C)OC2C(=O)OC(COCc3ccccc3)C2O1 (centres undefined)	> 100 µM (inactive)
N=C(N)N/N=C/c1c(-c2ccc([N+](=O)[O-])cc2)nc2sccn12	1.76 µM (inactive)
CN(C)c1ccc(/C=C/c2cc[n+](C)c3ccccc23)cc1	2.27 µM (inactive)
COC(=O)C(=O)C(C(C)=O)C(=O)NCc1ccc(OC)c(OC)c1 (centres undefined)	> 100 µM (inactive)
N#CCCN(C(=O)Nc1ccccc1)[C@H]1CCCC[C@@H]1N(C(=O)Nc1ccccc1)c1ccccc1	> 100 µM (inactive)
C[C@@H]1CC[C@@]2(NC1)O[C@H]1C[C@H]3[C@@H]4CC[C@H]5C[C@@H](O)CC[C@]5(C)[C@H]4CC[C@]3(C)[C@H]1[C@@H]2C	> 100 µM (inactive)
COC(=O)C1=C(O)C(C(=O)OC)[C@]2(O)[C@@H](C(=O)OC)[C@H]1[C@H](C)[C@@H](c1ccccc1)[C@@H]2C(=O)OC (some centres undefined)	96.4 µM (inactive)

====

- Test system: NCI-H522
- Assay Name: NCI tumour cell line growth inhibition, 48 h
Activity calls are given as the source filed them. Rule as the data show it: active = GI50 up to about 1.1 µM and inactive = higher. Residues, ends and D or L forms follow the SMILES beside them. *: point of attachment. Boc = CC(C)(C)OC(=O)*; OBn = c1ccc(CO*)cc1
Possible outcomes: 1 (yes) (active), 0 (no) (inactive)

Compound	Measurement Target	Discrete Label
Nc1ccc(Sc2nnc(N)s2)cc1	NCI-H522	0 (no)
Cn1c(=O)nc2n(-c3ccc(F)c(F)c3)c3ccccc3nc-2c1=O	NCI-H522	0 (no)
CC(=O)Nc1cc2cc(NS(=O)(=O)c3cc(C(F)(F)F)cc(C(F)(F)F)c3)ccc2oc1=O	NCI-H522	0 (no)
O=C1O/C(=C(\Br)c2cccc3ccccc23)c2ccccc21	NCI-H522	0 (no)
COCn1cnc2c(=O)n(-c3ccc(C)cc3)c(=S)n(-c3ccc(C)cc3)c21	NCI-H522	0 (no)
CC(=O)OC(=C(C#N)C#N)c1nccnc1C(=O)O	NCI-H522	0 (no)
CC(C)CNP(=O)(NCC(C)C)Oc1ccc(CC(NC(=O)OCc2ccccc2)C(=O)OCc2ccccc2)cc1 (stereo unspecified)	NCI-H522	0 (no)
O=C1CNc2cc(N3CCCCC3)ccc2N1	NCI-H522	0 (no)
CCOc1nc(N)nc(C)c1/N=N/c1ccc(Cl)cc1	NCI-H522	0 (no)
Cc1ccnc(NC(NC(=O)c2ccccc2)(C(F)(F)F)C(F)(F)F)c1	NCI-H522	0 (no)
CC(C)C(NC(=O)CNC(=O)C1CCCN1C(=O)C(NC(=O)OC(C)(C)C)C(C)C)C(=O)NCC(=O)OCc1ccccc1 (stereo unspecified) (Boc-VPGVG-OBn; configuration not given here)	NCI-H522	0 (no)
CCN(CC)c1ccc(/N=N/c2ccc(-c3nc4cccn(C)c-4n3)cc2)cc1	NCI-H522	0 (no)
CCN(CC)/[N+]([O-])=N/OC	NCI-H522	0 (no)
CCCCCCC(O)CC[C@H]1CCC[C@@H](C)N1 (stereo partly specified)	NCI-H522	0 (no)
CC(C)=CCC/C(C)=C/CCC1(C)C=Cc2c(c3ccccc3oc2=O)O1 (stereo unspecified)	NCI-H522	0 (no)
O=CN1CCN(CC(O)CN2CCCCC2)CC1 (stereo unspecified)	NCI-H522	0 (no)
C=C(C)[C@@H]1CC[C@]2(C(=O)OC)CC[C@]3(C)[C@H](CC[C@@H]4[C@@]5(C)CC[C@H](O)C(C)(C)[C@@H]5CC[C@]43C)[C@@H]12 [METHYL BETULINATE]	NCI-H522	0 (no)
COc1cc(C2c3cc4c(cc3OC(O)C2C)OCO4)cc(OC)c1O (stereo unspecified)	NCI-H522	0 (no)
CC1OC(n2cnc3c(N)nc(Cl)nc32)C(C)(O)C1O (stereo unspecified)	NCI-H522	0 (no)
Cc1nc(N(C(C)C)C(C)C)c(C(C)C)o1	NCI-H522	0 (no)
CCSc1nc(N/N=C/c2cccs2)c2cnn(CO)c2n1	NCI-H522	0 (no)
O=C1Nc2ccccc2/C1=N/Nc1c(F)c(F)c(F)c(F)c1F	NCI-H522	0 (no)
C=C(C)C(=O)O[C@H]1CC2=C[C@@H](C[C@@]3(C)O[C@@H]3[C@H]3OC(=O)C(=C)[C@@H]31)OC2=O	NCI-H522	1 (yes)
Brc1ccc2ns[s+]c2c1	NCI-H522	0 (no)
Cn1c2ccc([N+](=O)[O-])cc2c(=O)c2c(O)cc(O)cc21	NCI-H522	0 (no)
CSc1c(C#N)c(N)nc2c(/N=N\c3ccc(Br)cc3)c(N)nn12	NCI-H522	0 (no)

====

- Tested on: DMS-273
- Assay Name: NCI tumour cell line growth inhibition, 48 h
The source made the active and inactive calls. No stated cut-off is given here; in the data, active = GI50 up to about 1.1 µM and inactive = higher.
Measure Name: GI50

Compound	Result Value
Cc1cc(C)c(C2=NO[C@@H]3C(=O)N(c4ccc(Cc5ccc(N6C(=O)[C@H]7C(c8c(C)cc(C)cc8C)=NO[C@H]7C6=O)cc5)cc4)C(=O)[C@H]23)c(C)c1	> 100 µM (inactive)
Cc1cn(C2CC(O)C(CO)C2C)c(=O)[nH]c1=O (stereo not drawn)	> 100 µM (inactive)
Cc1cccc(C)c1NC(=O)C(=O)C(C#N)c1ccccc1 (stereo not drawn)	> 100 µM (inactive)

====

- Tested on: MOLT-4
- Assay Name: NCI tumour cell line growth inhibition, 48 h
The source made the active and inactive calls. No stated cut-off is given here; in the data, active = GI50 up to about 1.1 µM and inactive = higher.

Compound	GI50
COc1cc(O)cc(/C=C/c2ccc(O)cc2)c1	36 µM (inactive)
CSc1c(C#N)c(N)nc2c(/N=N\c3ccc(Br)cc3)c(N)nn12	3.63 µM (inactive)
Cc1cc(C)c(C2=NO[C@@H]3C(=O)N(c4ccc(Cc5ccc(N6C(=O)[C@H]7C(c8c(C)cc(C)cc8C)=NO[C@H]7C6=O)cc5)cc4)C(=O)[C@H]23)c(C)c1	> 100 µM (inactive)
C/C(=C\COP(=O)(O)OP(=O)(O)O)CC/C=C(\C)CNc1ccc([N+](=O)[O-])cc1	> 100 µM (inactive)
CN1CCN(P2(=S)Oc3ccc4ccccc4c3-c3c(ccc4ccccc34)O2)CC1	15.1 µM (inactive)
Oc1nc2cc(Cl)ccc2nc1/C(=N\Nc1ccccc1)C(O)c1ccc(Cl)c(Cl)c1 (stereo unspecified)	> 100 µM (inactive)

====

Recorded GI50 values for a group of compounds are listed next.
- System: A498
- Assay Name: NCI tumour cell line growth inhibition, 48 h
Active and inactive are the calls of the source. No stated cut-off is given here; in the data, active = GI50 up to about 1.1 µM and inactive = higher.

Compound	Measurement Target	GI50
COC(=O)c1cc(C(=O)OC)c(CC(=O)C(=O)NC2C3CC4CC(C3)CC2C4)nc1CC(=O)C(=O)NC1C2CC3CC(C2)CC1C3 (stereo not drawn)	A498	> 100 µM (inactive)
CN(C)c1ccc(C(=NN)c2ccc(N(C)C)cc2)cc1	A498	4.93 µM (inactive)
CCCCc1ccc(C#CC#Cc2ccc(CCCC)s2)s1	A498	> 100 µM (inactive)

====

- Tested on: LOX IMVI
- Assay Name: NCI tumour cell line growth inhibition, 48 h
Activity calls are given as the source filed them. No stated cut-off is given here; in the data, active = GI50 up to about 1.1 µM and inactive = higher.
Possible outcomes: true = active, false = inactive

Molecule	Discrete Label
CC1(C)CNC(c2ccc3c(c2)Cc2cc(C4=NC(C)(C)CN4)ccc2-3)=N1	false
CC12C=CC(C)(C3C(=O)C4C(C(=O)C31)C1(C)C=CC4(C)[S+]1[O-])[S+]2[O-] (stereo unspecified)	false
CCN(CC)C(=S)N/N=C(/C)c1cccc(/C(C)=N\NC(=S)N(CC)CC)n1	false
O=C(/N=C1/OC(CN2CCOCC2)CN1C(=O)Nc1ccccc1)Nc1ccccc1 (stereo unspecified)	false
COC1=CC(=O)c2c(O)c3c(c(O)c2C1=O)CC(C)(O)OC3 (stereo unspecified)	false
CC(=O)/N=C1\NC(=O)/C(=C/c2ccc(/C=C3/C(=O)N/C(=N\C(C)=O)N3C)cc2)N1C	false
C[C@H]1CN[C@@H]2[C@@H](C)[C@H]3[C@@H](C[C@H]4[C@@H]5CC[C@H]6C[C@@H](N)CC[C@]6(C)[C@H]5CC[C@]34C)O[C@@]2(O)C1	false
CN(C)CCCN1c2ccc(O)cc2Sc2ccc(Cl)cc21 [7-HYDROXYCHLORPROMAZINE]	false
CC(C)(C)c1cc(-c2cc(C(C)(C)C)n(-c3ccccc3)n2)nn1-c1ccccc1	false
O=S(=O)(c1ccc(NC(=S)N/N=C/c2ccccc2O)cc1)N1CCCCC1	true
Cc1cc(C)c(C2=NO[C@@H]3C(=O)N(c4ccc(Cc5ccc(N6C(=O)[C@H]7C(c8c(C)cc(C)cc8C)=NO[C@H]7C6=O)cc5)cc4)C(=O)[C@H]23)c(C)c1	false
